target: soluble histidine-tagged form of human TLR4/MD2 complex (human, UniProt Q9Y6Y9 19-160); experiment: competitive ELISA; coated 15C1 as competitor, soluble His-tagged human TLR4/MD2, Penta-His-HRP
Sequence (Q9Y6Y9 19-160, one chain of several): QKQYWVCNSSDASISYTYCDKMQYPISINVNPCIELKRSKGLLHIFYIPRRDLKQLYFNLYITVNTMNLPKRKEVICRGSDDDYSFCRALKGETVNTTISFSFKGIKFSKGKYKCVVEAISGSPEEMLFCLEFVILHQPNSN
Listing of entries alongside the reported EC50.
observable: EC50 (µg/mL)

binder	observable	unit.abbreviation	reported.measurement
1E11.C2E1 antibody (IgG1) (antibody, V domains shown) VH: QVQLQESGPGLVKPSDTLSLTCAVSGYPIRFGYSWHWIRQPPGKGLEWMGYIHYSGYTDFNPSLKTRITISRDTSKNQFSLKLSSVTAVDTAVYYCARKDSGNYFPYWGQGTLVTVSS VL: EIVLTQSPDFQSVTPKEKVTITCRASQSISDHLHWYQQKPDQSPKLLIKYASHAISGVPSRFSGSGSGTDFTLTINSLEAEDAATYYCQQGNDFPVTFGGGTKVEIK	EC50	µg/mL	0.021
1E11.C6 antibody (IgG1) (antibody, V domains shown) VH: QVQLQESGPGLVKPSDTLSLTCAVSGYPIGGGYSWHWIRQPPGKGLEWMGYIHYSGYTDFNPSLKTRITISRDTSKNQFSLKLSSVTAVDTAVYYCARKDSGNYFPYWGQGTLVTVSS VL: EIVLTQSPDFQSVTPKEKVTITCRASQSISDHLHWYQQKPDQSPKLLIKYASHAISGVPSRFSGSGSGTDFTLTINSLEAEDAATYYCQQGHSFPLTFGGGTKVEIK	EC50	µg/mL	0.061
1E11.E5 antibody (IgG1) (antibody, V domains shown) VH: QVQLQESGPGLVKPSDTLSLTCAVSGYSITGGYSWHWIRQPPGKGLEWMGYIHYSGYTDFNPSLKTRITISRDTSKNQFSLKLSSVTAVDTAVYYCARKDSGNYFPYWGQGTLVTVSS VL: EIVLTQSPDFQSVTPKEKVTITCRASQSISDHLHWYQQKPDQSPKLLIKYASHAISGVPSRFSGSGSGTDFTLTINSLEAEDAATYYCQQGYEFPLTFGGGTKVEIK	EC50	µg/mL	0.152
1E11.E3 antibody (IgG1) (antibody, V domains shown) VH: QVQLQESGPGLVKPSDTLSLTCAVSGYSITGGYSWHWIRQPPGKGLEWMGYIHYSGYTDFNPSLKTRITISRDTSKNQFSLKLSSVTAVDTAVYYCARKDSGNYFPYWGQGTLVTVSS VL: EIVLTQSPDFQSVTPKEKVTITCRASQSISDHLHWYQQKPDQSPKLLIKYASHAISGVPSRFSGSGSGTDFTLTINSLEAEDAATYYCQQGYDFPLTFGGGTKVEIK	EC50	µg/mL	0.126
